Target: T1, human CD33 antigen (human, UniProt P20138 18-259, limits assumed)
T1 construct: whole entry named; also called Siglec-3
T1 sequence (P20138 18-259 limits assumed): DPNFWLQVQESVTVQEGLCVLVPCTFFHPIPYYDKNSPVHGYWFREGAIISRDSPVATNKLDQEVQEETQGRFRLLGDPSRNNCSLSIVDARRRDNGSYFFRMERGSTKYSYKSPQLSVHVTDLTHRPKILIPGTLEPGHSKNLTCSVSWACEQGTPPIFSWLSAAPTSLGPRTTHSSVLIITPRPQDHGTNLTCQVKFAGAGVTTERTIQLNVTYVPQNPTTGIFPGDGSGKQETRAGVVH
Test: SPR (Biacore T200), 37 C, scFv-Fc, 10 uM MTX
Label Y when koff >= 0.06 s⁻¹; otherwise N.

binder	class.label
P01_B02 scFv-Fc fusion (scFv, V domains shown, Tested as scFv-Fc fusion) VH: QVQLVESGGGLVQAGGSLRLSCAASRRSSRSWAMHWVRQAPGKGLEWVAVISYDGRLKYYADSVKGRFTISRDNAEYLVYLQMNSLRAEDTAVYYCAAADWYSGGGDALDIWGQGTLVTVSS VL: DIQMTQSPSSLSASVGDRVTITCRASQTIYNYLNWYQQKPGKAPKLLIYGASNLQSGVPSRFSGSGSGTDFTLTISSLQPEDFATYYCQQTYSSPTFGQGTKVEIK	N
P04_C05 scFv-Fc fusion (scFv, V domains shown, Tested as scFv-Fc fusion) VH: QVQLVESGGGLVQAGGSLRLSCAASRRSSRSWAMHWVRQAPGKGLEWVAVISYDGRLKYYADSVKGRFTISRDNAEYLVYLQMNSLRAEDTAVYYCAAGLPWTDYWGQGTLVTVSS VL: QSVLTQPPSASGTPGQRVTISCSGSNSNIGSNYVSWYQQLPGTAPKLLIYSNNQRPSGVPDRFSGSKSGTSASLAISGLRSEDEADYYCAAWDDRLSVVFGTGTKLTVL	N
P02_D08 scFv-Fc fusion (scFv, V domains shown, Tested as scFv-Fc fusion) VH: QVQLVESGGGLVQAGGSLRLSCAASRRSSRSWAMHWVRQAPGKGLEWVAVISYDGRLKYYADSVKGRFTISRDNAEYLVYLQMNSLRAEDTAVYYCAAERGDGLDGNVGLDIWGQGTLVTVSS VL: DIQMTQSPSSLSASVGDRVTITCRASQSISKYLNWYQQKPGKAPKLLIYGASTLQSGVPSRFSGSGSGTDFTLTISSLQPEDFATYYCQQSYSSGTFGQGTKVEIK	Y
P07_C04 scFv-Fc fusion (scFv, V domains shown, Tested as scFv-Fc fusion) VH: QVQLVESGGGLVQAGGSLRLSCAASRRSSRSWAMHWVRQAPGKGLEWVAVISYDGRLKYYADSVKGRFTISRDNAEYLVYLQMNSLRAEDTAVYYCAAEPDGEGTNGGLDIWGQGTLVTVSS VL: DIQMTQSPSSLSASVGDRVTITCRASQNISRYLNWYQQKPGKAPKLLIYSASSLQTGVPSRFSGSGSGTDFTLTISSLQPEDFATYYCQQSYSSGAFGQGTKVEIK	N
P16_E06 scFv-Fc fusion (scFv, V domains shown, Tested as scFv-Fc fusion) VH: QVQLVESGGGLVQAGGSLRLSCAASRRSSRSWAMHWVRQAPGKGLEWVAVISYDGRLKYYADSVKGRFTISRDNAEYLVYLQMNSLRAEDTAVYYCAAEGGDYPGTSDGGLDIWGQGTLVTVSS VL: DIQMTQSPSSLSASVGDRVTITCRASQSISNYLNWYQQKPGKAPKLLIYGASSLQSGVPSRFSGSGSGTDFTLTISSLQPEDFATYYCQQSYSAGTFGQGTKVEIK	Y

Origin of measurements: patent US20230192839A1
